assay details: Human HepG2 cell viability assay in 384 well format
Assay type: toxicity, cell-based
Parameters: dose 125 nL, time 70.5 hour; concentration not given beside the values
setup conditions: HepG2 cells, read-out: Inhibition

- smiles data: "CCC[C@@H]1CN(Cc2cc(C#N)n(C)c2C)C[C@H]1NS(C)(=O)=O"
  unit of measure: "%"
  cytotoxicity at 70.5 h: -6.42
- smiles data: "CC(C)=CCN1C[C@H]2CC[C@@H]1CN(C(=O)Cc1c(C)nc(C)[nH]c1=O)C2"
  unit of measure: "%"
  cytotoxicity at 70.5 h: 1.03
- smiles data: "CCc1ncc(CN2CCN(c3cc(NC4CC4)nc(N)n3)CC2)cn1"
  unit of measure: "%"
  cytotoxicity at 70.5 h: -15
- smiles data: "Cc1ncsc1CN1CCn2nc(CCC(=O)N3CCCC3)cc2C1"
  unit of measure: "%"
  cytotoxicity at 70.5 h: -6.96
- smiles data: "O=C([C@@H]1CCO[C@@H]2CCN(CC3CCOCC3)C[C@H]21)N1CCCC1"
  unit of measure: "%"
  cytotoxicity at 70.5 h: -12.7

---

assay details: Human HepG2 cell viability assay in 384 well format
Format: toxicity, cell-based
Design: dose 125 nL, time 70.5 hour; concentration not given beside the values
setup conditions: HepG2 cells, read-out: Inhibition
Consider the following compounds and their measured cytotoxicity at 70.5 h readings.

- compound: "Cc1cccc(-n2cc(C(=O)N3CCn4c(C)nnc4C3)nn2)c1"
  cytotoxicity at 70.5 h, %: 9.22
- compound: "COCC(=O)N1CCO[C@]2(CCC[C@H]2COC)C1"
  cytotoxicity at 70.5 h, %: 9.79
- compound: "Cc1n[nH]c(C)c1Sc1ccccc1NC(=O)N1CCCC(C(N)=O)C1 (configuration not stated)"
  cytotoxicity at 70.5 h, %: 5.35
- compound: "COc1ccc2c(ccn2CCC(=O)Nc2ccc(C(N)=O)cc2)c1"
  cytotoxicity at 70.5 h, %: -7.39
- compound: "Cc1ccc(C(CNCc2cnn(C(C)C)c2)N2CCOCC2)s1 (configuration not stated)"
  cytotoxicity at 70.5 h, %: -0.62
- compound: "COCCc1noc(CN2CCC3(CCCO3)CCC2=O)n1 (configuration not stated)"
  cytotoxicity at 70.5 h, %: 15.5
- compound: "CCC[C@@H]1CN(Cc2cc3c(cc2OC)OCCO3)C[C@H]1C(=O)O"
  cytotoxicity at 70.5 h, %: -1.36
- compound: "OCCN1CCN(Cc2cc3c(cc2Br)OCCO3)CC1"
  cytotoxicity at 70.5 h, %: 20.1
- compound: "Cc1occc1C(=O)N1CCC[C@]2(C[C@@H](OCc3ccccn3)CO2)C1"
  cytotoxicity at 70.5 h, %: -9.42
- compound: "CCc1noc(CN2CCCC2C(=O)OCc2ccccc2)n1 (configuration not stated)"
  cytotoxicity at 70.5 h, %: -16.5
- compound: "Cc1[nH]c2ccccc2c1-c1ccnc(NCCN2CCCCC2)n1"
  cytotoxicity at 70.5 h, %: -3.28
- compound: "O=C1CN(Cc2nnc(-c3ccc(Cl)cc3)o2)CCN1"
  cytotoxicity at 70.5 h, %: -9.87

---

assay details: Human HepG2 cell viability assay in 384 well format
Assay type: toxicity, cell-based
Design: dose 125 nL, time 70.5 hour; concentration not given beside the values
setup conditions: HepG2 cells, read-out: Inhibition
experimental readout: cytotoxicity at 70.5 h (%)

- molecule: "CN(C)C(=O)N1CCN(c2ccc(Cl)nn2)C(=O)C1"
  unit of measure: "%"
  numeric result: -7.53
- molecule: "CN(C)C(=O)N[C@@H]1CN(S(C)(=O)=O)[C@@H]2CCCO[C@@H]21"
  unit of measure: "%"
  numeric result: 47.9
- molecule: "Cc1cc(CN2CCN(C(=O)CCCc3nc(C(C)C)no3)CC2)on1"
  unit of measure: "%"
  numeric result: -8.77
- molecule: "CN1CCCC(c2cccc(CCC(=O)NCC3(C)COC3)n2)C1 (centres undefined)"
  unit of measure: "%"
  numeric result: -1.36
- molecule: "NCCC(=O)NCC1(O)CCCN(c2ccnc3cccnc23)C1 (centres undefined)"
  unit of measure: "%"
  numeric result: -3.53
- molecule: "Cc1oncc1C(=O)N1CC2CC1(C(=O)N1CCCC1)C2"
  unit of measure: "%"
  numeric result: 8.06
- molecule: "CCCOC(=O)C(C)Sc1nnnn1C1CCOCC1 (centres undefined)"
  unit of measure: "%"
  numeric result: -2.83
- molecule: "Cc1nc(C)n(CCCNc2ncnc(C)c2C)n1"
  unit of measure: "%"
  numeric result: 18
- molecule: "Cc1ccc(C2CSCCN2C(=O)c2cccnc2)cc1 (centres undefined)"
  unit of measure: "%"
  numeric result: -9.38
- molecule: "Cc1cc(C)cc(CNc2ccc(C(=O)NC(C)CO)cc2)c1 (centres undefined)"
  unit of measure: "%"
  numeric result: -1.12
- molecule: "CSCC(C)(O)CNS(=O)(=O)c1cccc(C)c1 (centres undefined)"
  unit of measure: "%"
  numeric result: 6.12
- molecule: "Cc1nc(N2C[C@H]3CC[C@@H](C2)N3)nc2cc(S(C)(=O)=O)ccc12"
  unit of measure: "%"
  numeric result: -2.58
- molecule: "Cc1ccc(C(=O)N2C[C@@H]3OCCN(C(C)C)[C@@H]3C2)cn1"
  unit of measure: "%"
  numeric result: -11.3
- molecule: "CC(C)n1ccc(C(=O)N2CCCC(n3cncn3)C2)n1 (centres undefined)"
  unit of measure: "%"
  numeric result: -10.6
- molecule: "Cc1cc(C)nc(N2CCC(C(=O)Nc3n[nH]c(C(C)C)n3)CC2)n1"
  unit of measure: "%"
  numeric result: -11.5
- molecule: "COCCCS(=O)(=O)N(Cc1cccc(C)c1)Cc1ccccn1"
  unit of measure: "%"
  numeric result: 8.58
- molecule: "Cc1cncc(C2CCCN(C(=O)c3ccc(C)[nH]c3=O)C2)n1 (centres undefined)"
  unit of measure: "%"
  numeric result: -4.5
- molecule: "CN(C)c1cccc(C(=O)NCC(O)c2cccs2)c1 (centres undefined)"
  unit of measure: "%"
  numeric result: 20.3
- molecule: "Cc1noc(CCNC(=O)NCc2ccc(OC3CCCC3)cc2)n1"
  unit of measure: "%"
  numeric result: 0.994
- molecule: "CC(C)c1ccc(OCCC(=O)N2CCC(CC(N)=O)CC2)cc1"
  unit of measure: "%"
  numeric result: -3.31
- molecule: "CCN(CC1COc2ccccc2O1)C(=O)C1=NN(C)C(=O)CC1 (centres undefined)"
  unit of measure: "%"
  numeric result: -2.86
- molecule: "Cc1nn(C)c(Cl)c1C1CCCN1C(=O)c1cc[nH]n1 (centres undefined)"
  unit of measure: "%"
  numeric result: -13
- molecule: "CC(O)c1cccc(Nc2nc(NCCO)c3ccccc3n2)c1 (centres undefined)"
  unit of measure: "%"
  numeric result: -5.65
- molecule: "O=C(NCC(O)c1ccoc1)Nc1c(F)cccc1F (centres undefined)"
  unit of measure: "%"
  numeric result: -9.03

---

Consider the following molecules and their measured cytotoxicity at 70.5 h readings.
assay details: Human HepG2 cell viability assay in 384 well format
Format: toxicity, cell-based
Set-up: dose 125 nL, time 70.5 hour; concentration not given beside the values
setup conditions: HepG2 cells, read-out: Inhibition
experimental readout: cytotoxicity at 70.5 h (%)

- molecule: "Cc1cc(N2CCN(Cc3ccnn3C)CC2)cc(C2CCCN2)n1 (configuration not stated)"
  unit of measure: "%"
  numeric result: 13
- molecule: "CCN1CCN(C2CCN(C(C(N)=O)c3ccccc3)CC2)C1=O (configuration not stated)"
  unit of measure: "%"
  numeric result: 1.23
- molecule: "Cc1c(F)cccc1S(=O)(=O)N(C)CC(C)O (configuration not stated)"
  unit of measure: "%"
  numeric result: -11.6
- molecule: "COCCN(Cc1ccc(F)cc1Cl)C(=O)c1cc[n+]([O-])cc1"
  unit of measure: "%"
  numeric result: 17.1
- molecule: "c1cncc(CN2CCn3cc(CN4CCCCC4)nc3C2)c1"
  unit of measure: "%"
  numeric result: -5.48
- molecule: "O[C@]12CCNC[C@H]1CN(c1ccnc3ccccc13)CC2"
  unit of measure: "%"
  numeric result: 22.4
- molecule: "Cc1nc(CN(C)C2CCN(Cc3ccno3)C2)no1 (configuration not stated)"
  unit of measure: "%"
  numeric result: 29.4
- molecule: "COc1ccc(C(=O)NCc2ccc(C(=O)O)o2)cc1"
  unit of measure: "%"
  numeric result: 27.3
- molecule: "CCC1=NC(SCC(=O)c2ccc(OC)cc2)c2cc(CC)sc2N1 (configuration not stated)"
  unit of measure: "%"
  numeric result: 12.2
- molecule: "CC(=O)N1CCC(c2cncc(N3CCCC(O)C3)n2)CC1 (configuration not stated)"
  unit of measure: "%"
  numeric result: -4.12
- molecule: "Cc1ccc(-c2nc(CN3CCCC(Cn4cncn4)C3)no2)cc1 (configuration not stated)"
  unit of measure: "%"
  numeric result: 27.5
- molecule: "O=C(c1ccc(F)cc1)N(CCCO)S(=O)(=O)c1cccs1"
  unit of measure: "%"
  numeric result: -16.3
